# Target system: HIV-1LAI envelope gp120 (Human immunodeficiency virus type 1 group M subtype B)
# Type: binding
# Condition description: Panel E, 9-mers and 12-mers of CD4; empty control 571
# maps each entry to its COUNTS of radiolabeled gp120 retained
Number only, in counts; omit the unit.

# annotated cases, reported COUNTS of radiolabeled gp120 retained shown
• FQKASSIVY = 568
• ASSIVYKKE = 600
• EFSFPLAFTVEK = 585
• KASSIVYKK = 498
• EQVEFSFPL = 1032

Measured COUNTS of radiolabeled gp120 retained, `KKVEFKIDIVVL` : 597

Measured COUNTS of radiolabeled gp120 retained, `TVEKLTGSGELW` : 573

Measured COUNTS of radiolabeled gp120 retained, `LAFTVEKLTGSG` : 608

Measured COUNTS of radiolabeled gp120 retained, `GEQVEFSFPLAF` : 1729

Measured COUNTS of radiolabeled gp120 retained, `VVLAFQKASSIV` : 567

Measured COUNTS of radiolabeled gp120 retained, `QKASSIVYK` : 494
